system: Aspergillus flavus; assay: MIC, RPMI medium; assay type: cell-based; conditions: Aspergillus flavus, MIC banded into grades, read-out: MIC grade, A. flavus
Below, each of the molecules is paired with its reported MIC value.

- molecule: "Cc1cc(-c2ccccc2)c(C(=O)C(=O)Nc2ccc(-c3ncco3)c(F)c2)n1C [Example 148]"
  MIC: "< 1 µg/mL"
- molecule: "CCCCOCn1c(C)cc(-c2ccccc2)c1C(=O)C(=O)Nc1ccc(N2CCN(c3cc(C)cc(C)n3)CC2)cc1 [Example 135]"
  MIC: "> 10 µg/mL"
- molecule: "CCc1cc(-c2ccccc2)c(C(=O)C(=O)Nc2ccc(N3CCN(c4cc(C)cc(C)n4)CC3)cc2)n1COC [Example 125]"
  MIC: "1 to 10 µg/mL"
